ASSAY DETAILS: ATP-based viability loss in HEK293T cells – cell-based, CellTiter-Glo luminescence, dry powder, set 2, cytotoxicity control, dose response (AID 720595)
STUDY CONDITIONS: 72 h; series mostly up to 26 µM
Results with a measured potency or affinity are listed apart. Activity calls are given as the source filed them.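 Rule for the calls: active = every repeat test gives a fitted half-maximal cytotoxic concentration no higher than twice the top valid dose; inconclusive = repeats disagree, or a flat partial loss or poor fit; inactive = the rest, including signal rising instead.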
EXPERIMENTAL READOUT: outcome

Consider the following illustrative entries.
COMPOUND	outcome
Cc1ccc(C(=O)Nc2nc(-c3ccccn3)cs2)cc1S(=O)(=O)N1CCOCC1	inactive
COC(=O)c1ccc(NC(=O)CSc2ccc(-c3ccccn3)nn2)cc1	inactive
O=C(CSc1ccc(-c2ccccn2)nn1)Nc1nccs1	inactive
CC1CCN(S(=O)(=O)c2ccc(C(=O)Nc3nnc(C4CC4)o3)cc2)CC1	inactive
CC1CC(C)CN(S(=O)(=O)c2ccc(C(=O)Nc3nnc(C4=COCCO4)o3)cc2)C1 (configuration not stated)	inactive
O=C(Nc1nc(-c2ccncc2)cs1)c1cccc(S(=O)(=O)N2CCOCC2)c1	inactive

Consider the compound `Nc1nc(-c2ccccn2)nc(N)c1Cc1ccc(Cl)cc1Cl` and give its recorded outcome. inactive

Reference source for all entries: PubChem BioAssay AID720595
